biological target: Smo-D473H mutant receptor (Homo sapiens, UniProt Q99835, D473H); format: binding; conditions: U2OS cells overexpressing Smo-D473H; competitor up to 10 µM
Sequence (Q99835 28-787 D473H): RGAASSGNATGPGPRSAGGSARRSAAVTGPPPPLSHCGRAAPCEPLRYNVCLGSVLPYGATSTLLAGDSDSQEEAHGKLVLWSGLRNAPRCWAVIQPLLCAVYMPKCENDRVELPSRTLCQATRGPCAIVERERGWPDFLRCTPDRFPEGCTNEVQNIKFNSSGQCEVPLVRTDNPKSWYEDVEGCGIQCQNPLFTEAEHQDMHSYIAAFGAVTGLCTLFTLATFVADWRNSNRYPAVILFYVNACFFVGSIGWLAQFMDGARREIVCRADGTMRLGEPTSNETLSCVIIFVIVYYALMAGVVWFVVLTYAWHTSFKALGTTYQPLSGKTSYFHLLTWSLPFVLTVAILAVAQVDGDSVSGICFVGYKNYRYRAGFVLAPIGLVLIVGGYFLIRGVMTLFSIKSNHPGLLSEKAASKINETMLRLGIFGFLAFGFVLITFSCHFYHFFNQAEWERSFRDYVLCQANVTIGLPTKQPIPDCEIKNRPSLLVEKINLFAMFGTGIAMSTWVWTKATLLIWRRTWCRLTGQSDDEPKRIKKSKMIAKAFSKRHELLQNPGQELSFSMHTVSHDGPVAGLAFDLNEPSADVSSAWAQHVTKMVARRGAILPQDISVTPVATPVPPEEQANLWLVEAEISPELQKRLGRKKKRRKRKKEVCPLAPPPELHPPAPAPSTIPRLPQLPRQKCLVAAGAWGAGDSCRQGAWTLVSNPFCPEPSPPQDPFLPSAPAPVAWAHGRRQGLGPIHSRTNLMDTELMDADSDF
Endpoint label: displacement of [3H]-cyclopamine from Smo-D473H

O=C(NC1CCN(Cc2ccc(N3CCC(NC(=O)c4cccc(-c5cccnc5)c4)CC3)nc2)CC1)c1cccc(-c2cccnc2)c1 [Compound A8]: completely displace
CC1=C2C[C@H]3[C@@H](CC=C4C[C@@H](O)CC[C@@]43C)[C@@H]2CC[C@]12O[C@@H]1C[C@H](C)CN[C@H]1[C@H]2C [cyclopamine]: completely displace
